- Test system: Danio rerio Tg(wt1b:EGFP) embryo, pronephros
- experiment: glomerular width (mean of left and right), fold change vs DMSO control; higher = wider glomerulus
- condition.description: 25 µM; exposure: 24-48 hpf
Where a name gives a salt, the structure may show the parent alone.
measured.parameter: glomerular width

{"compound": "COc1c2occc2c(OC)c2c(=O)cc(C)oc12", "glomerular width": 1}
{"compound": "O=C1CN2Cc3c(ccc(Cl)c3Cl)N=C2N1 [Anagrelide]", "glomerular width": 0.932}
{"compound": "CC(=O)Nc1ccc(OCC(O)CNC(C)C)cc1 (stereo not drawn)", "glomerular width": 0.986}

// batch mode: one glomerular width value per listed entry
1. C[C@@H]1NC(=O)NC1=O
2. CC(=O)S[C@@H]1CC2=CC(=O)CC[C@]2(C)[C@H]2CC[C@@]3(C)[C@@H](CC[C@@]34CCC(=O)O4)[C@H]12
3. NC[C@H]1O[C@H](O[C@H]2[C@H](O[C@@H]3O[C@H](CO)[C@@H](O)[C@H]3O)[C@@H](O)[C@H](N)C[C@@H]2N)[C@H](N)[C@@H](O)[C@@H]1O [Ribostamycin sulfate salt]
4. C#CCN(C)CCCOc1ccc(Cl)cc1Cl [Clorgyline hydrochloride]
5. COc1ccc(C(Cl)=C(c2ccc(OC)cc2)c2ccc(OC)cc2)cc1
6. Cc1ccc(N(CC2=NCCN2)c2cccc(O)c2)cc1 [Phentolamine hydrochloride]
7. O=C(O)c1cc(/N=N/c2ccc(S(=O)(=O)Nc3ccccn3)cc2)ccc1O

0.967
0.912
1.08
1.05
1.03
1.08
1.02

// batch mode: one glomerular width value per listed entry
1. Fc1ccc(C(c2ccc(F)cc2)N2CCN(C/C=C/c3ccccc3)CC2)cc1 [Flunarizine dihydrochloride]
2. O=C(O)CCNC(=O)c1ccc(/N=N/c2ccc(O)c(C(=O)O)c2)cc1 [Balsalazide Sodium]
3. CC(C)(C)NC[C@H](O)COc1ccccc1C1CCCC1 [Penbutolol sulfate]

1. 0.932
2. 1.03
3. 0.988

* * *

Exercise: state measured fraction of imaged embryos annotated as normal kidney for each of the compounds provided.
- Tested on: Danio rerio Tg(wt1b:EGFP) embryo, pronephros
- experiment: fraction of imaged embryos annotated as normal kidney; higher = less nephrotoxic; extreme values may be limits of the assay
- condition.description: 25 µM; exposure: 24-48 hpf
Counter-ions that a name gives are not always drawn.
Give bare numbers.

As a guide, the following entries are already answered.
{"compound": "O=C1CN(/N=C/c2ccc([N+](=O)[O-])o2)C(=O)N1", "assayed.target": "Danio rerio Tg(wt1b:EGFP) embryo, pronephros", "numeric.value": 0.833}
{"compound": "CN(C)CC/C=C1\\c2ccccc2CSc2ccccc21 [Dosulepin hydrochloride]", "assayed.target": "Danio rerio Tg(wt1b:EGFP) embryo, pronephros", "numeric.value": 0.833}
{"compound": "N=C(N)N1CCc2ccccc2C1 [Debrisoquin sulfate]", "assayed.target": "Danio rerio Tg(wt1b:EGFP) embryo, pronephros", "numeric.value": 0.667}
{"compound": "CC(=C(CCO)SSCC1CCCO1)N(C=O)Cc1cnc(C)nc1N (stereo in doubt) [Fursultiamine Hydrochloride]", "assayed.target": "Danio rerio Tg(wt1b:EGFP) embryo, pronephros", "numeric.value": 0.833}

Now consider a different compound.
Requested read-out fraction of imaged embryos annotated as normal kidney, target or system Danio rerio Tg(wt1b:EGFP) embryo, pronephros, entry O=C(N/N=C/c1ccc([N+](=O)[O-])o1)c1ccc(O)cc1 [Nifuroxazide]
0.833

* * *

- Test system: Danio rerio Tg(wt1b:EGFP) embryo, pronephros
- experiment: pronephric angle neck segment to proximal convoluted tubule (mean of left and right), fold change vs DMSO control; higher = larger pronephric angle
- condition.description: 25 µM; exposure: 24-48 hpf
Structures can show the parent of a compound that is named as a salt.
Exercise: state measured pronephric angle neck segment for each of the molecules provided.
Numbers only.

As a guide, the following entries are already answered.
{"molecule": "O=C1NCCN1CCN1CCC(c2cn(-c3ccc(F)cc3)c3ccc(Cl)cc23)CC1 [Sertindole]", "pronephric angle neck segment": 0.949}
{"molecule": "CN1CCC(=C2c3ccccc3Sc3ccccc32)CC1 [Pimethixene maleate]", "pronephric angle neck segment": 1.06}
{"molecule": "CC(C)(C)NCC(O)c1ccc(O)c(CO)c1 (stereo not given) [Salbutamol]", "pronephric angle neck segment": 1.04}

// batch mode: one pronephric angle neck segment value per listed entry
1. C=CC1=C(C(=O)O)N2C(=O)[C@@H](NC(=O)/C(=N\OCC(=O)O)c3csc(N)n3)[C@H]2SC1 [Cefixime]
2. NS(=O)(=O)c1cc2c(cc1Cl)NC(CC1CCCC1)NS2(=O)=O (stereo not given) [Cyclopenthiazide]
3. CCCCCCCCNC(C)C(O)c1ccc(SC(C)C)cc1 (stereo not given) [Suloctidil]
4. O=C1NCC2(CCN(CCc3ccccc3)CC2)O1 [Fenspiride hydrochloride]
5. CC(N)C12CC3CC(CC(C3)C1)C2 (stereo not given) [Rimantadine Hydrochloride]
6. CCOC(=O)[C@H](CCc1ccccc1)N[C@@H](C)C(=O)N1CCC[C@H]1C(=O)O [Enalapril maleate]
7. O=c1cc(-c2ccc(O)c(O)c2)oc2cc(O)cc(O)c12 [Luteolin]

1: 1.07; 2: 1; 3: 1.48; 4: 1.09; 5: 1.04; 6: 0.942; 7: 0.999

* * *

- System: Danio rerio Tg(wt1b:EGFP) embryo, pronephros
- experiment: glomerular width (mean of left and right), fold change vs DMSO control; higher = wider glomerulus
- condition.description: 25 µM; exposure: 24-48 hpf
Exercise: state measured glomerular width for each of the compounds provided.
Numbers only.

{"compound": "COc1cnc(NS(=O)(=O)c2ccc(N)cc2)nc1", "glomerular width": 1.01}
{"compound": "CC1(C)S[C@@H]2[C@H](NC(=O)[C@H](C(=O)O)c3ccsc3)C(=O)N2[C@H]1C(=O)O [Ticarcillin sodium]", "glomerular width": 1.01}

Now consider a different compound.
Give its glomerular width value. Item: CN1CCN(c2c(F)cc3c(=O)c(C(=O)O)cn4c3c2SCC4)CC1
0.924

* * *

- Test system: Danio rerio Tg(wt1b:EGFP) embryo, pronephros
- experiment: pronephric angle neck segment to proximal convoluted tubule (mean of left and right), fold change vs DMSO control; higher = larger pronephric angle
- condition.description: 25 µM; exposure: 24-48 hpf
Where a name gives a salt, the structure may show the parent alone.
Exercise: state measured pronephric angle neck segment for each of the molecules provided.
Numbers only.

As a guide, the following entries are already answered.
{"molecule": "CCCCCCNC(=O)n1cc(F)c(=O)[nH]c1=O [Carmofur]", "assayed.target": "Danio rerio Tg(wt1b:EGFP) embryo, pronephros", "pronephric angle neck segment": 1.72}
{"molecule": "CCN(CC)C(=O)/C(C#N)=C/c1cc(O)c(O)c([N+](=O)[O-])c1 [Entacapone]", "assayed.target": "Danio rerio Tg(wt1b:EGFP) embryo, pronephros", "pronephric angle neck segment": 1.28}
{"molecule": "C[C@]12CC[C@@H]3c4ccc(OS(=O)(=O)O)cc4CC[C@H]3[C@@H]1CCC2=O [Estropipate]", "assayed.target": "Danio rerio Tg(wt1b:EGFP) embryo, pronephros", "pronephric angle neck segment": 1.02}
{"molecule": "COC(=O)Nc1nc2cc(Sc3ccccc3)ccc2[nH]1 [Fenbendazole]", "assayed.target": "Danio rerio Tg(wt1b:EGFP) embryo, pronephros", "pronephric angle neck segment": 1.8}
{"molecule": "Cc1noc(NS(=O)(=O)c2ccc(N)cc2)c1C [Sulfisoxazole]", "assayed.target": "Danio rerio Tg(wt1b:EGFP) embryo, pronephros", "pronephric angle neck segment": 0.97}
{"molecule": "Nc1nc(=O)[nH]cc1F [Flucytosine]", "assayed.target": "Danio rerio Tg(wt1b:EGFP) embryo, pronephros", "pronephric angle neck segment": 1}
{"molecule": "CC=CC1=C(C(=O)O)N2C(=O)[C@@H](NC(=O)[C@H](N)c3ccc(O)cc3)[C@H]2SC1 [Cefprozil]", "assayed.target": "Danio rerio Tg(wt1b:EGFP) embryo, pronephros", "pronephric angle neck segment": 0.965}
{"molecule": "COc1ccc(-c2cc(=S)ss2)cc1 [Anethole-trithione]", "assayed.target": "Danio rerio Tg(wt1b:EGFP) embryo, pronephros", "pronephric angle neck segment": 1.04}
{"molecule": "O=C1CC2(CCCC2)CC(=O)N1CCCCN1CCN(c2ncccn2)CC1 [Buspirone hydrochloride]", "assayed.target": "Danio rerio Tg(wt1b:EGFP) embryo, pronephros", "pronephric angle neck segment": 1.01}
{"molecule": "O=C(C1CCCCC1)N1CC(=O)N2CCc3ccccc3C2C1 (stereo not given) [Praziquantel]", "assayed.target": "Danio rerio Tg(wt1b:EGFP) embryo, pronephros", "pronephric angle neck segment": 1.02}

// batch mode: one pronephric angle neck segment value per listed entry
1. CC(=O)OCC(=O)NCCCOc1cccc(CN2CCCCC2)c1 [Roxatidine Acetate hydrochloride]
2. NCCc1cc[nH]n1 [Betazole hydrochloride]
3. CO[C@@H]1[C@@H](O[C@@H]2O[C@H](C)[C@@H](O[C@H]3C[C@@](C)(O)[C@@H](OC(=O)CC(C)C)[C@H](C)O3)[C@H](N(C)C)[C@H]2O)[C@@H](CC=O)C[C@@H](C)[C@@H](O)/C=C/C=C/C[C@@H](C)OC(=O)C[C@H]1OC(C)=O [Josamycin]

1. 1.01
2. 1.05
3. 1.04

// batch mode: one pronephric angle neck segment value per listed entry
1. CCCC(=O)Nc1ccc(OCC(O)CNC(C)C)c(C(C)=O)c1 (stereo not given) [Acebutolol hydrochloride]
2. CN1CCN(C2=Nc3ccccc3Oc3ccc(Cl)cc32)CC1 [Loxapine succinate]
3. Nc1nnc(-c2cccc(Cl)c2Cl)c(N)n1 [Lamotrigine]
4. CC[N+](CC)(CC)CCC(O)(c1ccccc1)C1CCCCC1 (stereo not given) [Tridihexethyl chloride]
5. Nc1ccc(O)c(C(=O)O)c1 [Mesalamine]

0.96
1.06
0.998
1.04
0.971
